Biological target: cdk1/cyclin B (CDC2) (Homo sapiens)
Assay: CDK inhibition assay, cdk1/cyclin B (CDC2) kinase, histone phosphorylation
Assay type: biochemical
PROPERTY LABEL: log10(IC50) (log10 of the value in nM)
All values: base-10 log of IC50 in nM.

Use these answered entries as a reference point.
MOLECULE | STUDY TARGET | log10(IC50)
Cc1n[nH]c2c(Nc3ccc(N)c(Cl)c3)nc(NCCO)nc12 | cdk1/cyclin B (CDC2) (Homo sapiens) | 1.08
CC[C@H](CO)Nc1nc(Nc2ccc(O)c(C(=O)O)c2)c2[nH]nc(C(C)C)c2n1 | cdk1/cyclin B (CDC2) (Homo sapiens) | 1.00
CC(=O)c1cccc(CNc2nc(NCCO)nc3c(C)n[nH]c23)c1 | cdk1/cyclin B (CDC2) (Homo sapiens) | 1.60
CC[C@H](CO)Nc1nc(NCc2ccccc2OC(C)=O)c2[nH]nc(C(C)C)c2n1 | cdk1/cyclin B (CDC2) (Homo sapiens) | 2.00
CC(C)c1n[nH]c2c(Nc3ccc(C(=O)O)c(Cl)c3)nc(N[C@@H](CO)C(C)C)nc12 | cdk1/cyclin B (CDC2) (Homo sapiens) | -0.05

`Cc1n[nH]c2c(NCc3ccccc3)nc(NCCCO)nc12` has a reported log10(IC50) of 2.85

====

Measured log10(GI50), listed per entry for reference.
Tested on: CEM (human lymphoblastoid leukemia)
Assay: In vitro cytotoxic activity, Calcein AM
Type: cell-based
Settings: Homo sapiens, 72 h, three days
In plain terms, each number is the log10 of measured GI50 in µM.

COMPOUND | STUDY TARGET | log10(GI50)
CC[C@H](CO)Nc1nc(NCc2ccc(O)c(O)c2)c2[nH]nc(C(C)C)c2n1 | CEM (human lymphoblastoid leukemia) | 0.96
CC[C@H](CO)Nc1nc(NCc2cccc(O)c2)c2[nH]nc(C(C)C)c2n1 | CEM (human lymphoblastoid leukemia) | 1.02
Cc1n[nH]c2c(NCc3ccccc3)nc(NC3CCCCC3N)nc12 (stereo not shown) | CEM (human lymphoblastoid leukemia) | 0.36
CC(C)c1n[nH]c2c(NCc3ccc(Cl)c(O)c3O)nc(N[C@@H](CO)C(C)C)nc12 | CEM (human lymphoblastoid leukemia) | -0.05
CC[C@H](CO)Nc1nc(NCc2c(O)cc(OC)cc2O)c2[nH]nc(C(C)C)c2n1 | CEM (human lymphoblastoid leukemia) | 0.26

Field log10(GI50) (entry `Cc1n[nH]c2c(NCc3cccc(Cl)c3O)nc(NCCO)nc12` ) reads 0.18

Form field log10(GI50), entry `CC(C)c1n[nH]c2c(NCc3ccccc3)nc(NCCCO)nc12` : 1.32

In plain terms, `Cc1n[nH]c2c(Nc3ccc(C(=O)O)c(Cl)c3)nc(NCCO)nc12` has a documented log10(GI50) of 0.95

compound `CC(C)c1n[nH]c2c(Nc3cccc(Cl)c3)nc(N(CCO)CCO)nc12` , log10(GI50) observed: 1.32

log10(GI50) reported for this compound `Cc1n[nH]c2c(Nc3ccc(Cl)c(N)c3)nc(NCCO)nc12` : 0.76

====

Test system: PHA-stimulated lymphocytes (PBMC)
Experiment: Proliferation of PHA-stimulated lymphocytes (PBMC), flow cytometric cell count
Assay type: cell-based, human
Conditions: 96 hours, IL-2
PROPERTY LABEL: IC50 (µM)
# number only, unit µM dropped from output

Reading of IC50 for `CC(C)c1n[nH]c2c(N[C@@H](CO)c3ccccc3)nc(NC[C@H](O)CO)nc12` with PHA-stimulated lymphocytes (PBMC): 10

====

Test system: CEM (human lymphoblastoid leukemia)
Experiment: In vitro cytotoxic activity, Calcein AM
Type: cell-based
Details: Homo sapiens, 72 h, three days
PROPERTY LABEL: GI50 (µM)
Answer format: numeric, µM implied, no suffix.

COMPOUND | STUDY TARGET | VALUE MEASURED
Cc1n[nH]c2c(NCc3ccccc3)nc(NCCN)nc12 | CEM (human lymphoblastoid leukemia) | 35
CC(C)c1n[nH]c2c(Nc3ccc(Cl)c(N)c3)nc(N[C@@H](CO)C(C)C)nc12 | CEM (human lymphoblastoid leukemia) | 2.9
Cc1n[nH]c2c(Nc3ccc(Cl)cc3)nc(NCCO)nc12 | CEM (human lymphoblastoid leukemia) | 7.6
Cc1n[nH]c2c(NCc3ccc(Cl)c(N)c3N)nc(NCCO)nc12 | CEM (human lymphoblastoid leukemia) | 5.6

Now examine the next entry.
The compound CC(C)c1n[nH]c2c(Nc3cccc(Cl)c3)nc(NC3CCC(N)CC3)nc12 (centres unmarked) on CEM (human lymphoblastoid leukemia): GI50 was 0.5

====

Target: IκB-α kinase
Assay: IκB-α kinase inhibition, in vitro kinase assay
pIC50: −log10 of the molar value.
// not met strictly below 8 in pIC50; met otherwise

INPUT SMILES | LABEL
CC[C@H](CO)Nc1nc(NCc2ccc(Cl)c(N)c2N)c2[nH]nc(C(C)C)c2n1 | not met
Cc1n[nH]c2c(NCc3cccc(O)c3)nc(NCCO)nc12 | not met
CC(C)c1n[nH]c2c(NCc3c(O)cc(Cl)cc3O)nc(N[C@@H](CO)C(C)C)nc12 | met
Cc1n[nH]c2c(NCc3ccccc3)nc(NCCCN)nc12 | not met

Next up:
### Prompt Check this compound for pIC50 at or above 8: `CC(C)c1n[nH]c2c(Nc3ccc(Cl)cc3)nc(N[C@@H](CO)C(C)C)nc12`
### Response met

====

// each record: one item and its pIC50 for MMK1 protein kinase (Vicia faba)
Expect pIC50 as a plain number equal to -log10 of the molar concentration.

Before answering, review these 3 worked examples.
INPUT SMILES | STUDY TARGET | pIC50
CC[C@H](CO)Nc1nc(NCc2cccc(C(C)=O)c2)c2[nH]nc(C(C)C)c2n1 | MMK1 protein kinase (Vicia faba) | 7.40
CC[C@H](CO)Nc1nc(NCc2cccc(Cl)c2O)c2[nH]nc(C(C)C)c2n1 | MMK1 protein kinase (Vicia faba) | 7.92
Cc1n[nH]c2c(NCc3ccccc3)nc(N[C@@H](CO)C(C)C)nc12 | MMK1 protein kinase (Vicia faba) | 6.40

Field pIC50 (system: MMK1 protein kinase (Vicia faba)) for entry `Cc1n[nH]c2c(Nc3ccc(O)c(C(=O)O)c3)nc(NCCO)nc12` = 6.15

Item: `CC[C@H](CO)Nc1nc(Nc2ccccc2)c2[nH]nc(C(C)C)c2n1` | System: MMK1 protein kinase (Vicia faba) | pIC50: 6.96

For `CC(C)c1n[nH]c2c(Nc3cccc(Cl)c3)nc(NCCO)nc12` on MMK1 protein kinase (Vicia faba), measured pIC50 was 6.55

The measured pIC50 that `CC[C@H](CO)Nc1nc(Nc2cc(N)cc(Cl)c2)c2[nH]nc(C(C)C)c2n1` showed for MMK1 protein kinase (Vicia faba) is 7.70

Item: `CC[C@H](CO)Nc1nc(NCc2cccc(OC(C)=O)c2)c2[nH]nc(C(C)C)c2n1` | System: MMK1 protein kinase (Vicia faba) | pIC50: 6.40

Result for `CC(=O)Oc1ccccc1CNc1nc(NCCO)nc2c(C)n[nH]c12` , tested on MMK1 protein kinase (Vicia faba), pIC50: 5.48

Param item: `CC[C@H](CO)Nc1nc(N(C)CCc2ccc(O)c(O)c2)c2[nH]nc(C(C)C)c2n1` ; param system: MMK1 protein kinase (Vicia faba); output pIC50: 5.82

====

Target: cdk1/cyclin B (CDC2) (Homo sapiens, UniProt P06493)
Sequence (P06493 whole entry, species assumed): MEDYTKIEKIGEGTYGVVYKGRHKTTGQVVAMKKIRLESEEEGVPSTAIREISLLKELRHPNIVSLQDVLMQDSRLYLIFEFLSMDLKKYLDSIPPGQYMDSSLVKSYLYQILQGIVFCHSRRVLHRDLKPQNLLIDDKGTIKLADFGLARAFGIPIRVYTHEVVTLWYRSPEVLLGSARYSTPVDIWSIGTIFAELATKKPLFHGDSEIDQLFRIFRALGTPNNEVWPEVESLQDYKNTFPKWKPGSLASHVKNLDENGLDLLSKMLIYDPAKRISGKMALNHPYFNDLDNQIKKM
Sequence (P14635 whole entry partner, species assumed): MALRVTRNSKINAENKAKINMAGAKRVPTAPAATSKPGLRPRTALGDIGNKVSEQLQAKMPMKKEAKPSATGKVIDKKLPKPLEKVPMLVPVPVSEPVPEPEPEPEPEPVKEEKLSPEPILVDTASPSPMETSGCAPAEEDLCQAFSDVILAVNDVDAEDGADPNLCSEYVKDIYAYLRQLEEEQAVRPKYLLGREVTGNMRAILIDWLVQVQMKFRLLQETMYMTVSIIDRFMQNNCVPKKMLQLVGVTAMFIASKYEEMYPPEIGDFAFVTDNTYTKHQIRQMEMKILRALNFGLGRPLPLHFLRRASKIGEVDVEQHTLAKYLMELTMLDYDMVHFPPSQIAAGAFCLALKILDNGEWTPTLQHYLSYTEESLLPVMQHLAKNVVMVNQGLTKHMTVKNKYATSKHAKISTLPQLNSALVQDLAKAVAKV
Assay: CDK inhibition assay, cdk1/cyclin B (CDC2) kinase, histone phosphorylation
Type: biochemical
Reported IC50 values follow for various molecules
The figure you give is taken to be in nM; do not add the unit.

MOLECULE | UNIT STRING | IC50
CC[C@H](CO)Nc1nc(N(C)Cc2ccc(O)c(O)c2)c2[nH]nc(C(C)C)c2n1 | nM | 230
Cc1n[nH]c2c(NC(CO)c3ccccc3)nc(NCCO)nc12 (racemic) | nM | 200
Cc1n[nH]c2c(NCc3ccc(Cl)c(N)c3)nc(NCCO)nc12 | nM | 200
Cc1n[nH]c2c(NCc3c(O)cc(Cl)cc3O)nc(NCCO)nc12 | nM | 5
CC[C@H](CO)Nc1nc(NCc2c(O)cc(OC)cc2O)c2[nH]nc(C(C)C)c2n1 | nM | 0.8
CC[C@H](CO)Nc1nc(NCc2cccc(OC)c2O)c2[nH]nc(C(C)C)c2n1 | nM | 4
CC[C@H](CO)Nc1nc(Nc2cccc(Cl)c2)c2[nH]nc(C(C)C)c2n1 | nM | 4
Cc1n[nH]c2c(NCc3ccccc3)nc(NCCN)nc12 [2-aminoethylamino; benzylamino; methyl] | nM | 2000

Entry `Cc1n[nH]c2c(NCc3cccc(Cl)c3O)nc(NCCO)nc12` ; IC50 = 10

# IC50 (molecule: `Cc1n[nH]c2c(Nc3ccc(Br)cc3)nc(NCCO)nc12` ) is 8

This collection of values is drawn from patent US7745450B2.
